System: BDF1 mice, Friend leukemia sc, tumor weight T/C
ASSAY_COMMENT: NCI In Vivo Anticancer Drug Screen. Data for tumor model Friend Virus Leukemia (Solid) (subcutaneous) in B6D2F1 (BDF1) mice
DETAILS: endpoint: mean tumor weight; dose: 18.0 mg/kg/injection; schedule: Q01DX011 (ip); vehicle: carboxymethylcellulose (CMC); higher = larger tumour
Records with an inconclusive call do not appear.
Exercise: state measured T/C for each of the molecules provided.

Please give the measured T/C for this molecule: "ClCCn1cnc2c(SCc3ccccc3)ncnc21"
85 % of control

Please give the measured T/C for this molecule: "O=c1[nH]cc(F)c(=O)[nH]1"
93 % of control

Please give the measured T/C for this molecule: "COS(C)(=O)=O"
98 % of control

Please give the measured T/C for this molecule: [I][Hg][CH2]C1OCCOC1[CH2][Hg][I] (stereo not given)
66 % of control

Please give the measured T/C for this molecule: "NC1(C(=O)O)CCCC1"
63 % of control
